Would you kindly list IC50 for each of these molecules?
molecular target: human SLC6A19 and TMEM27 (Homo sapiens); construct: expressed in transfected cells; experiment: 13C6,15N-isoleucine uptake in CHO cells with doxycycline-inducible expression of human SLC6A19 and TMEM27, RapidFire mass spectrometry (Example B-2); type: cell-based; conditions: read-out: SLC6A19_RapidFire Uptake Assay IC50
Sequence (Q695T7 whole entry): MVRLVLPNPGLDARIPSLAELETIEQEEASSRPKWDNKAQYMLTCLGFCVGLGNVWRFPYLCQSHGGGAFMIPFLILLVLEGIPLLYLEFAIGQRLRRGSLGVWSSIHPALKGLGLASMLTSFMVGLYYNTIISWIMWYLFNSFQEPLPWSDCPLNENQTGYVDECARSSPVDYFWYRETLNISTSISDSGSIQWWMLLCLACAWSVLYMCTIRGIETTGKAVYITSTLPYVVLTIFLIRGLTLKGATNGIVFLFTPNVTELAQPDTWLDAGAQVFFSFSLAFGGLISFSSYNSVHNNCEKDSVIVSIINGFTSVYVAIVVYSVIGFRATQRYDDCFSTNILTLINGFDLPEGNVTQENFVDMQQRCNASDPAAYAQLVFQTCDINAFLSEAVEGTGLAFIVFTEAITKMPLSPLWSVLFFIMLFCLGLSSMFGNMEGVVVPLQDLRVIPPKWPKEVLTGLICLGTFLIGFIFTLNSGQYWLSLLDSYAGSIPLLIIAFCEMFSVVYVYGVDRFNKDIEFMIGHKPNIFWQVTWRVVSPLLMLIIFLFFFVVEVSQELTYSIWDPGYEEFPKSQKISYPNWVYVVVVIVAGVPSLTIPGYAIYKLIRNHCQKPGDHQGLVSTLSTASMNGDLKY
Sequence (Q9HBJ8 15-222 partner): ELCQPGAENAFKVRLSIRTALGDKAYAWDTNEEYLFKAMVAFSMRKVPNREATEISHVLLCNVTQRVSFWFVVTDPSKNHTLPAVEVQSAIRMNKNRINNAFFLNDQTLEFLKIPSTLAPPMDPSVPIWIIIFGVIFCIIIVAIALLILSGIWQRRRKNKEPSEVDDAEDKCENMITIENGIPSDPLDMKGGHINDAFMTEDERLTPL
Write the answer as a number in nM, unit excluded.

Problem: Return reported IC50; argument: Cc1c(CNC(=O)C2(C)CC2)[nH]c2cc(OCc3ccccc3)ccc12 [Compound 156]
Solution: 198

Problem: Okay, and CC1(C(=O)NCc2cc3cc(Cl)c(OCc4cc(C(F)(F)F)on4)cc3[nH]2)CC1 [Compound 352] ?
Solution: 469

Problem: Try this molecule next: Cn1ncc(COc2ccc3cc(CNC(=O)C4(C)CC4)[nH]c3c2)n1 [Compound 173]
Solution: 926

Problem: Same for O=C(NCc1cc2cc(F)c(OCc3cscn3)cc2[nH]1)C1(F)CC1 [Compound 230]
Solution: 22.9

Problem: # repeat for CNC(=O)NCc1cc2ccc(OCc3cscn3)cc2[nH]1 [Compound 217]
Solution: 3420

Problem: Also CNC(=O)NCc1cc2cc(F)c(OCc3cocn3)cc2[nH]1 [Compound 215] , if possible.
Solution: 3890

Problem: // query: Cc1noc(COc2ccc3cc(CNC(=O)C4(C)CC4)[nH]c3c2)n1 [Compound 169]
Solution: 83

Problem: Continue with CC1CN(C(=O)NCc2cc3cc(Cl)c(OCc4ccon4)cc3[nH]2)C1 [Compound 390]
Solution: 402

Problem: Again, but for CC1(C(=O)NCc2cc3cc(Cl)c(OCc4cscn4)c(F)c3[nH]2)CC1 [Compound 18]
Solution: 91

Data credit: patent US20240199546A1
